OBSERVED_PROPERTY: melting point (°C)

Consider the reported melting point for these compounds:
// field: melting point; key: CCOc1cc(C(C)(C)C)ccc1C1COC(c2c(F)cccc2F)=N1 (configuration not stated) ; value = 102

// field: melting point; key: Cc1ccc(NC(=O)c2cccc3ccccc23)cc1 ; value = 174

// field: melting point; key: CC1(C)CCCC(O)C1 (configuration not stated) ; value = 11.5

P. CC(=O)CC(c1ccc([N+](=O)[O-])cc1)c1c(O)oc2ccccc2c1=O (configuration not stated)
Q. CCCCC#CCCCCC
Q: Which record would sort first by descending melting point, P or Q ? Answer by stating the label of the chosen item.
Ans: P
(P: 197 °C, Q: -74.1 °C)

A. COP(=O)(CN1C(=O)c2ccccc2C1=O)OC
B. Cc1c(-c2ccccc2)n(C)c2ccccc12
C. FC(Cl)C(F)Cl (configuration not stated)
Q: Give the ascending ranking of the items by reported melting point. Provide the labels, sequenced as the question asks.
Ans: C, B, A

I. CCOC(=O)c1coc(Cl)n1
II. CC1CCC2C(C)C(=O)OCC12 (configuration not stated)
III. CN(C)c1ccc(C=Cc2nc3ccccc3s2)cc1
IV. CCCCCCCCCCCCCCCC(=O)OCCCC
Q: Give the ascending ranking of the items by reported melting point. Provide the labels, sequenced as the question asks.
Ans: IV, II, I, III
(IV: 16.9 °C, II: 60.5 °C, I: 97.5 °C, III: 210 °C)
